Origin of the recorded values: the supplement of paper PMC7600603

Catalogue of molecules with associated TC50 cytotoxicity
- Test system: DLD1 NRF2-GOF
- assay.method.text: TC50 cytotoxicity; higher = less toxic
- condition.description: 72 h; CellTox Green cytotoxicity

The cases that follow already have their TC50 cytotoxicity on record.
molecule=O=C(Nc1cc(Cl)cc2c1[nH]c1cnccc12)c1cccnc1 readout_label="TC50 cytotoxicity" assay_result="> 25000 nM"
molecule=CN(C)CCCOc1ccc(-c2ccc3ncc4c(c3c2)n(C2CCOCC2)c(=O)n4C)cn1 readout_label="TC50 cytotoxicity" assay_result="> 1000 nM"
molecule=CS(=O)(=O)c1ccc(C(=O)Nc2ccc(Cl)c(-c3ccccn3)c2)c(Cl)c1 readout_label="TC50 cytotoxicity" assay_result="> 10000 nM"
molecule=CN1CCN(c2ccc(C(=O)Nc3n[nH]c4ccc(Cc5cc(F)cc(F)c5)cc34)c(NC3CCOCC3)c2)CC1 readout_label="TC50 cytotoxicity" assay_result="> 1000 nM"
molecule=CS(=O)(=O)CCNCc1ccc(-c2ccc3ncnc(Nc4ccc(OCc5cccc(F)c5)c(Cl)c4)c3c2)o1 readout_label="TC50 cytotoxicity" assay_result="> 1000 nM"

Name the reported TC50 cytotoxicity value associated with the molecule C/C(=C\c1csc(C)n1)[C@@H]1C[C@@H]2O[C@]2(C)CCC[C@H](C)[C@H](O)[C@@H](C)C(=O)C(C)(C)[C@@H](O)CC(=O)N1 [Ixabepilone]
> 1000 nM

Look up TC50 cytotoxicity for this molecule: CC(=O)c1cnc2ccc(-c3cc(Cl)c(O)c(Cl)c3)nc2c1N[C@H]1CC[C@H](CN(C)C)CC1
> 1000 nM

Dear colleague, I am looking for the recorded TC50 cytotoxicity of the following molecule: Cc1c(C(=O)Nc2ccc(N3C[C@@H](C)O[C@@H](C)C3)nc2)cccc1-c1ccc(OC(F)(F)F)cc1
> 10000 nM
